- TESTED TARGET: human ML1B receptor (Homo sapiens)
- Sequence (P49286 1-362): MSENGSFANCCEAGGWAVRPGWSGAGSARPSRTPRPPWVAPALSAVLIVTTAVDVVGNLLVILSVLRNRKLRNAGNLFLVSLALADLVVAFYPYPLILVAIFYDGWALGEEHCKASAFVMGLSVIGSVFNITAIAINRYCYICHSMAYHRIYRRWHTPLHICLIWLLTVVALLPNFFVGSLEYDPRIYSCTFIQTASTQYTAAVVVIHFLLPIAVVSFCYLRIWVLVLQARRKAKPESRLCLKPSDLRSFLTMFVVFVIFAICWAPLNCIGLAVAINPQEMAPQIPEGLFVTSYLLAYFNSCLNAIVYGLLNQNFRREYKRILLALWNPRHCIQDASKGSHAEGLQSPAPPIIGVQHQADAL
Provide the reported IC50 of each item.

Please review the following examples before continuing.
COc1ccc2c(c1)C(N1CCN(C(=O)c3ccc(Br)o3)CC1)CC2 (single isomer, unassigned; (-))    10 to 100 nM
COc1ccc2c(c1)C(N1CCN(C(=O)c3c[nH]c4ccccc34)CC1)CC2 (single isomer, unassigned; (-))    100 to 250 nM
CCCCCCCCCOc1ccc2c(c1)C(N1CCN(C(=O)C3CC3)CC1)CC2 (centres unmarked)    100 to 250 nM
C=CC(=O)N1CCN(C2CCc3ccc(OC)cc32)CC1 (centres unmarked)    10 to 100 nM
CCNC(=O)N1CCN(C2CCc3ccc(OCC)cc32)CC1 (centres unmarked)    10 to 100 nM

Hello, I would appreciate it if you could give IC50 for each entry below.
1. COc1ccc2c(c1)C(N1CCN(C(=O)c3sccc3Br)CC1)CC2 (single isomer, unassigned; (-))
2. CCNC(=O)N1CCN(C2CCc3ccc(OC)cc32)CC1 (centres unmarked)
3. C=C(C)C(=O)N1CCN(C2CCc3ccc(OC)cc32)CC1 (centres unmarked)
4. COc1ccc2c(c1)C(N1CCN(C(C)=O)CC1)CCC2 (centres unmarked)
5. COc1ccc2c(c1)C(N1CCN(C(=O)NC3CC3)CC1)CC2 (centres unmarked)
6. O=C(C1CC1)N1CCN(C2CCc3ccccc32)CC1 (centres unmarked)
7. COc1ccc2c(c1)C(N1CCN(C(=O)c3ccc(Cl)s3)CC1)CC2 (single isomer, unassigned; (-))
8. COc1ccc2c(c1)C(N1CCN(C(=O)c3cc(Br)c(Br)s3)CC1)CC2 (single isomer, unassigned; (-))

Output:
["< 10 nM", "10 to 100 nM", "< 10 nM", "10 to 100 nM", "< 10 nM", "100 to 250 nM", "100 to 250 nM", "100 to 250 nM"]

Hello, I would appreciate it if you could give IC50 for each entry below.
1. COCC(=O)N1CCN(C2CCc3ccc(OC)cc32)CC1 (centres unmarked)
2. CCc1ccc2c(c1)C(N1CCN(C(=O)C3CC3)CC1)CC2 (centres unmarked)
3. COc1ccc2c(c1)C(N1CCN(C(=O)C3(C)CCCCC3)CC1)CC2 (single isomer, unassigned; (-))
4. COc1ccc2c(c1)C(N1CCCN(C(=O)C3CC3)CC1)CC2 (centres unmarked)
5. COc1ccc2c(c1)C(N1CCN(C(=O)C3CC3)CC1)CCC2 (centres unmarked)
6. COc1ccc2c(c1)C(N1CCN(C(=O)c3cccs3)CC1)CC2 (centres unmarked)
7. CCCCCCCCCOc1ccc2c(c1)C(N1CCN(C(=O)NCC)CC1)CC2 (centres unmarked)

Output:
10 to 100 nM
100 to 250 nM
100 to 250 nM
10 to 100 nM
100 to 250 nM
< 10 nM
10 to 100 nM

----------
- TESTED TARGET: human ML1B receptor (Homo sapiens, UniProt P49286)
- Construct: host or cells: NIH 3T3 cells, stably transfected; membrane homogenates
- Sequence (P49286 1-362): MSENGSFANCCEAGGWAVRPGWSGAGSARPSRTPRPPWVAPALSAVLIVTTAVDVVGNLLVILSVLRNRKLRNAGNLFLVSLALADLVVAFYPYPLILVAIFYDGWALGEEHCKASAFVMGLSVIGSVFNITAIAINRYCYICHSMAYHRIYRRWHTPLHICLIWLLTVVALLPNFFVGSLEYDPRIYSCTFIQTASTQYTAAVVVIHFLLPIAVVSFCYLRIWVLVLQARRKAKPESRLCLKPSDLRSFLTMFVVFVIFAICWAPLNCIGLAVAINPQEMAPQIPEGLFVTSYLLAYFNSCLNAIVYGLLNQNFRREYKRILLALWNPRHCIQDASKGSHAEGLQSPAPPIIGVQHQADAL
- ASSAY NOTES: Measurement of binding to melatonergic receptors (2-[125I]-iodomelatonin, membranes of transfected NIH 3T3 cells)
- CONDITION INFO: 2-[125I]-Iodomelatonin 200 pM, 37 °C for 1 hour, NIH 3T3 cells stably transfected with the human ML1B receptor; read-out: Melatonin Binding
pIC50: −log10 of the molar value.
METRIC: pIC50

Please review the following examples before continuing.
COc1ccc2c(c1)C(N1CCN(C(=O)N(C)C)CC1)CC2 (stereo not drawn)    7.00 to 8.00
COc1ccc2c(c1)C(N1CCN(C(=O)c3csnn3)CC1)CC2 (single isomer, unassigned; (-))    7.00 to 8.00
C=CCCCCCCCCC(=O)N1CCN(C2CCc3ccc(OC)cc32)CC1 (single isomer, unassigned; (-))    6.60 to 7.00
CC(=O)NCCc1c(Cc2ccccc2)[nH]c2ccccc12 [Luzindole, reference compound]    6.60 to 7.00
COc1ccc2c(c1)C(N1CCN(C(=O)c3ccccc3)CC1)CC2 (single isomer, unassigned; (-))    6.60 to 7.00

Hello, I would appreciate it if you could give pIC50 for each entry below.
1. CCOc1ccc2c(c1)C(N1CCN(C(=O)C3CC3)CC1)CC2 (stereo not drawn)
2. COc1ccc2c(c1)C(N1CCN(C(=O)c3ccccc3Cl)CC1)CC2 (single isomer, unassigned; (-))
3. CCNC(=O)N1CCN(C2CCc3cc(F)c(OC)cc32)CC1 (stereo not drawn)
4. COc1ccc2c(c1)C(N1CCN(C(=O)C=C(C)C)CC1)CC2 (single isomer, unassigned; (-))
5. CCC(=O)C(=O)N1CCN(C2CCc3ccc(OC)cc32)CC1 (single isomer, unassigned; (-))
6. CCOC(=O)N1CCN(C2CCc3ccc(OC)cc32)CC1 (stereo not drawn)
7. COc1ccc2c(c1)C(N1CCN(C(=O)C3CCC3)CC1)CC2 (stereo not drawn)
8. COc1ccc2c(c1)C(N1CCN(C(=O)c3occc3C)CC1)CC2 (single isomer, unassigned; (-))

Output:
1. > 8.00
2. 6.60 to 7.00
3. 7.00 to 8.00
4. 7.00 to 8.00
5. 7.00 to 8.00
6. 6.60 to 7.00
7. > 8.00
8. > 8.00

Hello, I would appreciate it if you could give pIC50 for each entry below.
1. COc1ccc2c(c1)C(N1CCN(C(=O)CSC)CC1)CC2 (single isomer, unassigned; (-))
2. COc1ccc2c(c1)C(N1CCN(C(=O)c3cccn3C)CC1)CC2 (single isomer, unassigned; (-))

Output:
["> 8.00", "> 8.00"]
